molecular target: BCHE (Homo sapiens (Human), UniProt P06276); assay: biochemical; type: biochemical
Sequence (P06276 29-602, species assumed): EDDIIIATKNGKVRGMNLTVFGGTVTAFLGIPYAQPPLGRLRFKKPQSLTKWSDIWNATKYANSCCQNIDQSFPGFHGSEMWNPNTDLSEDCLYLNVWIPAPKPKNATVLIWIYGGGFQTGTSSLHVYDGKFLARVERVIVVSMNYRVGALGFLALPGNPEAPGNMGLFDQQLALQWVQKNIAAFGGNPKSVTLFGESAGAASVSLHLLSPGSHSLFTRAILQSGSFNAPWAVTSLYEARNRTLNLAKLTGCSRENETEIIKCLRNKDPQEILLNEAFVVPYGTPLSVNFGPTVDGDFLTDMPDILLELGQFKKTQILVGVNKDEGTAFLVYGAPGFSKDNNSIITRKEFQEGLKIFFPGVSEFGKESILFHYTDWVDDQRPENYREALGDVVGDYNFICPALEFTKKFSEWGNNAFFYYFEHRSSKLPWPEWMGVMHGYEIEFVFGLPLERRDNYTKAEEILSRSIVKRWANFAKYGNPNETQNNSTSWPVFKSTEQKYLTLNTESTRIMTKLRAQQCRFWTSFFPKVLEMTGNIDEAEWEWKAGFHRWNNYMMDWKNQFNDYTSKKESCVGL
pIC50: −log10 of the molar value.
Property measured: pIC50

Compound	Property measured	Reported measurement
CCCCOP(=O)(OCCCC)Oc1ccccc1Cl [Compound 9, Di-n-butyl 2-chlorophenyl phosphate]	pIC50	9.16

* * *

Molecular target: ACHE (Homo sapiens (Human), UniProt P22303)
Sequence (P22303 32-614): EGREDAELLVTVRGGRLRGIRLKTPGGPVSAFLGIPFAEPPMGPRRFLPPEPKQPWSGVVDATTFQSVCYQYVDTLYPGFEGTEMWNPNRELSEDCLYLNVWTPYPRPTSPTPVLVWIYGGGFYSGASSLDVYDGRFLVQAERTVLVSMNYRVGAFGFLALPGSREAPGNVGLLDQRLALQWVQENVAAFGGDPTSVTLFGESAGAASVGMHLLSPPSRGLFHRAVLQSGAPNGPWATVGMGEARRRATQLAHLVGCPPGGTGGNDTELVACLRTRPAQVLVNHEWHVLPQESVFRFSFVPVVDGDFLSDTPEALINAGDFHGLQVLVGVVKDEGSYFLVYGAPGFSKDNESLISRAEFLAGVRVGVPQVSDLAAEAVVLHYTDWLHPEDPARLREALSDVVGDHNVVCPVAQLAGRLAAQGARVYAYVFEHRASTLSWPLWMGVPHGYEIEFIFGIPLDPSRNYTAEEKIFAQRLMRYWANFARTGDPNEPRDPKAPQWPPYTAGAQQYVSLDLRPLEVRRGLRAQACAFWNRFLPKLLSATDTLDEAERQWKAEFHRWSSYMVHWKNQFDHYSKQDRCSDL
Assay: Relative Activity of ACHE, 20 μM inhibitor for 2 minutes
Format: biochemical
Conditions: Activity of Inhibitor incubated enzyme/Activity of unincubated enzyme
Protocol: In order to compare the relative inhibitory activity of the five compounds 27, 35, 89, 90 and 92 against BCHE and ACHE, a solution of each enzyme was incubated with 20 μM of the inhibitor for 2 minutes, and the enzyme activity determined. Table 5 lists the Relative Activity (=Activity of Inhibitor incubated enzyme/Activity of unincubated enzyme).
Decide using Relative Activity of ACHE: a value greater than or equal to 0.9 is Met, a smaller one is Not met.

Compound	Label class
CCCCOP(=O)(Cc1ccc2ccccc2c1)OCCCC [Compound 90, Di-n-butyl 2-naphthylmethylphosphonate]	Met
CCCCOP(=O)(OCCCC)Oc1cc(C)cc(C)c1 [Compound 27, Di-n-butyl 3,5-dimethylphenyl phosphate]	Met
CCCCOP(=O)(Cc1cccc2ccccc12)OCCCC [Compound 89, Di-n-butyl 1-naphthylmethylphosphonate]	Met
CCCCOP(=O)(Cc1cc(C)cc(C)c1)OCCCC [Compound 92, Di-n-butyl 3,5-dimethylbenzylphosphonate]	Met
CCCCOP(=O)(OCCCC)Oc1ccc2ccccc2c1 [Compound 35, Di-n-butyl 2-napthyl phosphate]	Not met
